Origin of measurements: paper PMC11012064

So I've got a bunch of compounds here, and I need their melting point values.

For the compound `CCCCCOc1ccc(C2=NCCN2)cc1` , give its measured melting point value.
129 to 131 °C

For the compound `CCCOc1ccc(C2=NCCN2)cc1` , give its measured melting point value.
121 to 122 °C

For the compound `CCCCOc1ccc(C2=NCCN2)cc1` , give its measured melting point value.
122 to 123 °C

For the compound `CCCCCCCOc1ccc(C2=NCCN2)cc1` , give its measured melting point value.
100 to 102 °C

###

Assay: Cytotoxic effect on macrophages, resazurin
Assay type: cell-based, murine
Settings: mouse, J774A.1 macrophages; J774A.1 murine macrophages, 20 h + 4 h resazurin; confidence interval (Probit) in parentheses; triplicate; read-out: Macrophages J774 CC50
measurement label: CC50

For the compound `COc1ccc(C2=NCCN2)cc1` , give its measured CC50 value.
> 100 mg/L

For the compound `CCCCOc1ccc(C2=NCCN2)cc1` , give its measured CC50 value.
> 100 mg/L

For the compound `CCOc1ccc(C2=NCCN2)cc1` , give its measured CC50 value.
> 100 mg/L

###

Tested on: L. mexicana promastigotes
Assay: Metabolic inhibition of Leishmania mexicana promastigotes, fluorometric analysis with resazurin
Format: cell-based
Conditions: Leishmania mexicana, 48 h, read-out: L. mexicana Promastigotes IC50, promastigotes, 24 h + 24 h resazurin, 27 °C; confidence interval (Probit) in parentheses; triplicate
So I've got a bunch of compounds here, and I need their IC50 values.

For the compound `O=c1[nH]c2ccccc2nc1CBr` , give its measured IC50 value.
> 50 µg/mL

For the compound `CCCCCCCCCOc1ccc(C2=NCCN2)cc1` , give its measured IC50 value.
< 1 µg/mL

For the compound `CCCCCCOc1ccc([C@@H](O)[C@@H](O)c2ccc(OCCCCCC)cc2)cc1` , give its measured IC50 value.
> 50 µg/mL
